- System under test: electric eel AChE (Electrophorus electricus, UniProt O42275)
- Construct: purchased Sigma-Aldrich
- Sequence (O42275 24-633): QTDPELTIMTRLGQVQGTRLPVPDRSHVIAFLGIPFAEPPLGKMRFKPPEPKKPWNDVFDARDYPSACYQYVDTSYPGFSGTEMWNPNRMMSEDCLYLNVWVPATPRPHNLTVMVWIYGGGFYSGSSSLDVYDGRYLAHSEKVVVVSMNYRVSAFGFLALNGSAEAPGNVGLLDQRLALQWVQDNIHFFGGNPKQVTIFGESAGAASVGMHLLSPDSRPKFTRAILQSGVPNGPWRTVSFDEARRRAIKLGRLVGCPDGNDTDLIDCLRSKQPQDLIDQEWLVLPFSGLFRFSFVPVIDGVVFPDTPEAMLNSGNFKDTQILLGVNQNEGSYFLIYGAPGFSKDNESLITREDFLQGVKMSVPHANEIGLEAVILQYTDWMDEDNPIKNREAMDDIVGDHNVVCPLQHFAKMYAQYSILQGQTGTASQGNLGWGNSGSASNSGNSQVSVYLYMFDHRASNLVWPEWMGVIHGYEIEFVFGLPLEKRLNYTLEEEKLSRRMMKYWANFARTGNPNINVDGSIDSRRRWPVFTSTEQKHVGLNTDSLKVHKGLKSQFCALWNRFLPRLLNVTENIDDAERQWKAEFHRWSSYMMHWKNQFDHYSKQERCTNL
- Protocol text: biochemical
Quantity kind: IC50

Data point: CC1CC(=O)c2c(O)cccc2O1 (stereo not shown) [HMC, 5-hydroxy-2-methyl-chroman-4-one] ; IC50 = > 40 µM

---

- System under test: Human recombinant MAO-A (Homo sapiens, UniProt P21397)
- Construct: purchased Sigma-Aldrich
- Sequence (P21397 whole entry): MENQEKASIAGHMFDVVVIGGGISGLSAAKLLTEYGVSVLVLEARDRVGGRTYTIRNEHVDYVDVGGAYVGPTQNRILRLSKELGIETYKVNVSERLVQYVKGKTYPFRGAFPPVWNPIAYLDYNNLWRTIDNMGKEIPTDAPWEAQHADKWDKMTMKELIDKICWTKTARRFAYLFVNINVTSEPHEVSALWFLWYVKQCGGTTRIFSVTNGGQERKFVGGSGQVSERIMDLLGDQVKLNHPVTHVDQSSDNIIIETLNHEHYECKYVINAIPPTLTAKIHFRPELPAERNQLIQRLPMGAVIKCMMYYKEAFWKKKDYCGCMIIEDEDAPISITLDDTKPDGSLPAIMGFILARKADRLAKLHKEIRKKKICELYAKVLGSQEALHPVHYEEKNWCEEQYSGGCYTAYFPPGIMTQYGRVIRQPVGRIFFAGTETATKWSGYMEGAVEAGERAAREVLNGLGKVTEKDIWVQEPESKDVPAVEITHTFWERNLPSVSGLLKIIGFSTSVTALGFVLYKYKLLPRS
- Protocol text: MAO-A activity assay (kynuramine, 316 nm)
- Format: biochemical
Quantity kind: IC50 (µM)
Numbers only here, please. The scale is µM.

Data point: CC1CC(=O)c2c(O)cccc2O1 (stereo not shown) [HMC, 5-hydroxy-2-methyl-chroman-4-one] ; IC50 = 14

---

- System under test: Human recombinant MAO-B (Homo sapiens)
- Construct: purchased Sigma-Aldrich
- Sequence (P27338 1-520): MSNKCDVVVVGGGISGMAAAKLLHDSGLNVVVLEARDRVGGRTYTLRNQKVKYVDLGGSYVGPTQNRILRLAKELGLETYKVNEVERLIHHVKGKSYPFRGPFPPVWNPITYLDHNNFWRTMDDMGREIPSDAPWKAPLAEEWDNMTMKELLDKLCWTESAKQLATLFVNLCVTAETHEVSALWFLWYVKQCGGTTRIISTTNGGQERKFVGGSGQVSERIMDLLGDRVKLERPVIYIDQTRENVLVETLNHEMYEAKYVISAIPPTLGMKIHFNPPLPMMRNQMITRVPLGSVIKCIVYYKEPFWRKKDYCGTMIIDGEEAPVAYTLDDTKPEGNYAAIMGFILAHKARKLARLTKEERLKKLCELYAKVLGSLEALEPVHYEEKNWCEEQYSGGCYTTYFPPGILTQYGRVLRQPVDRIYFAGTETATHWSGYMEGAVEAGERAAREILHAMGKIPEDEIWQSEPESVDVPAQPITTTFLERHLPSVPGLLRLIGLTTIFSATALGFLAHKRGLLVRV
- Protocol text: MAO-B activity assay (benzylamine, 250 nm)
- Type: biochemical
Quantity kind: IC50 (µM)
Numbers only here, please. The scale is µM.

Data point: CC1CC(=O)c2c(O)cccc2O1 (stereo not shown) [HMC, 5-hydroxy-2-methyl-chroman-4-one] ; IC50 = 3.23

---

- System under test: Human recombinant MAO-B (Homo sapiens)
- Protocol text: MAO-B activity assay (benzylamine, 250 nm)
- Assay context: secondary plot of Lineweaver–Burk slopes vs inhibitor concentration
Quantity kind: pKi
Lab note: report pKi as minus log10 of the concentration in molar units, number only.

Sample CC1CC(=O)c2c(O)cccc2O1 (stereo not shown) [HMC, 5-hydroxy-2-methyl-chroman-4-one] , system: Human recombinant MAO-B (Homo sapiens). Its pKi is 6.05
